The next entries give measured IC50 for c-fms (Homo sapiens (Human), UniProt P07333).
Dear colleague, please return just the value in nM, with no unit written.

- molecule-smiles: "COCCNC1(c2ccc(NC(=O)c3nc(C#N)c[nH]3)c(C3=CCC(C)(C)CC3)c2)CCCCC1"
  experimental-endpoint: "IC50"
  reported-result: 2.9

Please look at the following compound next.
Q: Return IC50 measured with c-fms (Homo sapiens (Human), UniProt P07333) given this compound: CC1(C)CC=C(c2cc(C3(O)CCCC3)ccc2NC(=O)c2nc(C#N)c[nH]2)CC1
Sequence (P07333 20-972): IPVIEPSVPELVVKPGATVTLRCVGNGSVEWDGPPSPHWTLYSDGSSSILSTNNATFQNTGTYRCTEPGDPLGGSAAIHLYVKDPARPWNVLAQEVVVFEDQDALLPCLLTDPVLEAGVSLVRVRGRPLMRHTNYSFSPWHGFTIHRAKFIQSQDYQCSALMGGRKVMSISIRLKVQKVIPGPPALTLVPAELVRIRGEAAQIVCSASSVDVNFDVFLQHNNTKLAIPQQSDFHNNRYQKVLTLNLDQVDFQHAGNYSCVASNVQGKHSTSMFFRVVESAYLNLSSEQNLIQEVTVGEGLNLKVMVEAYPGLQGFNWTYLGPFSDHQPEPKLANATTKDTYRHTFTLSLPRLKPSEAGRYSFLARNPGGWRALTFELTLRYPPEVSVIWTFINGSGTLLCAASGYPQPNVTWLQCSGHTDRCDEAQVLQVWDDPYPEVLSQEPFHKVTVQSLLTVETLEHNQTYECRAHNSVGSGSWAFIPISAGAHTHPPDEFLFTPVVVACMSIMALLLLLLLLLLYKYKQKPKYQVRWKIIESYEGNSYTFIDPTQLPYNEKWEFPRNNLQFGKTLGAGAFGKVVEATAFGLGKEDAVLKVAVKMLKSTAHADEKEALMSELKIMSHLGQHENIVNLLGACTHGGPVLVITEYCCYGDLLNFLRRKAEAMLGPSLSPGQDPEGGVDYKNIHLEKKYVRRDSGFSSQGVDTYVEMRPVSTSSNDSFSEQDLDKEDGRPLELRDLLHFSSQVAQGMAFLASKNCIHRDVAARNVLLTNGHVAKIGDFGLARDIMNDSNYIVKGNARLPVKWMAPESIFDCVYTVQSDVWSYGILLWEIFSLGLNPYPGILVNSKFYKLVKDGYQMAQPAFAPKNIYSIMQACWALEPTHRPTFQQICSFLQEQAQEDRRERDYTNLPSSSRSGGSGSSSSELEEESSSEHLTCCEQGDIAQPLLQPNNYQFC
Ans: 2.3
